Biological target: T1, human neurotensin receptor type 1 (hNTS1R), stably expressed in CHO cells (human, UniProt P30989 1-418)
T1 construct: human neurotensin receptor type 1 (hNTS1R), wild type, stably expressed in Chinese hamster ovary cells; also called CHO-hNTS1R cells; CHO-NTS1R cells; source: CHO cells stably expressing hNTS1R; intact adherent cells, intact suspended cells and membrane preparations
T1 sequence (P30989 whole entry): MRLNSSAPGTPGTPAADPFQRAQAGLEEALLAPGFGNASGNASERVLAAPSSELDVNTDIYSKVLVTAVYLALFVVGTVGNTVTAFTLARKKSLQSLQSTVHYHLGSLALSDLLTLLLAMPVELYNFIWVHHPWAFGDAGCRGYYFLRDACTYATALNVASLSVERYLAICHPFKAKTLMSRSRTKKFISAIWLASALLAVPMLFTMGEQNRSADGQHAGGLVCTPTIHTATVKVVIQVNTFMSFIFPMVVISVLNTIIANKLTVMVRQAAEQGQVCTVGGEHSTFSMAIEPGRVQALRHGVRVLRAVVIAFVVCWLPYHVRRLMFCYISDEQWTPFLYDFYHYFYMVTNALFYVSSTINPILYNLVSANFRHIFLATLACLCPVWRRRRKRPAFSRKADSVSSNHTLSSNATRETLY
Assay: radioligand binding; saturation binding at intact adherent cells (CHO-hNTS1R or HT-29), DPBS1 with 1% BSA, 23 ± 1 °C; radioligand 1:1 diluted with its cold analogue
Conditions: one partner purified
Some binders, each annotated with its measured Kd.
# unit: nM | format: bare number

BINDER	Kd, nM
XPRRPYIL (as 18, with a [^3H]propionyl instead of the propionyl group at the N^ω-carbamoylated Arg8; N-terminal Cy3B through a triazolylpropanoyl group; position 6 (X) = pipGly; position 11 = …) [[^3H]18, tritiated analogue of the Cy3B-labeled peptide 18]	1.1

Then this binder:
Kd recorded for this binder, XPRRPYIL (as 13, with a [^3H]propionyl instead of the propionyl group at the N^ω-carbamoylated Arg8; N-terminal 5-TAMRA through a triazolylpropanoyl group; position 6 (X) = pipGly) [[^3H]13, tritiated analogue of the 5-TAMRA-labeled peptide 13] , is 1.3
